Test system: HL-1
ASSAY_SUMMARY: relative cell viability (CellTiter-Glo) vs DMSO control (% of DMSO control); higher = more viable cells
TEST_CONDITIONS: oxygen condition: normoxia 72 h; 200 nM
ASSAY_READOUT: relative cell viability
Answer field: number only, no words.

**Query** Quick check: relative cell viability of `CC[C@H](C)C(=O)O[C@H]1CCC=C2C=C[C@H](C)[C@H](CC[C@@H]3C[C@@H](O)CC(=O)O3)[C@H]21` ?
**Result** 105

**Query** Another compound: `O=c1c(-c2ccc(O)cc2)coc2cc(O)ccc12`
**Result** 107

**Query** Another compound: CC1Cc2ccccc2N1NC(=O)c1ccc(Cl)c(S(N)(=O)=O)c1 (centres undefined) [Indapamide]
**Result** 102

**Query** Another compound: `OC[C@@H](O)[C@@H](O)[C@H](O)[C@H](O)CO`
**Result** 98.9

**Query** Another compound: `CN1CC(=O)N2[C@H](c3ccc4c(c3)OCO4)c3[nH]c4ccccc4c3C[C@@H]2C1=O`
**Result** 112

* * *

Test system: HL-1
ASSAY_SUMMARY: relative cell viability (CellTiter-Glo) vs DMSO control (% of DMSO control); higher = more viable cells
TEST_CONDITIONS: oxygen condition: normoxia 72 h; 5000 nM
ASSAY_READOUT: relative cell viability
Answer field: number only, no words.

Worked examples, 2 molecules total:
CNCC(O)c1ccc(O)c(O)c1 (racemic) : 11.8
CCCC(CCC)C(=O)O[C@H]1C[C@H]2CC[C@@H](C1)[N+]2(C)C [Anisotropine Methylbromide] : 109

Turning now to a further record.
**Query** Quick check: relative cell viability of Oc1ccc(OC2CCCCO2)cc1 (stereo not drawn) ?
**Result** 109

* * *

Tested on: HL-1
ASSAY_SUMMARY: relative cell viability (CellTiter-Glo) vs DMSO control (% of DMSO control); higher = more viable cells
TEST_CONDITIONS: oxygen condition: hypoxia 48 h (1% O2) + reoxygenation 24 h; 200 nM
Counter-ions that a name gives are not always drawn.
ASSAY_READOUT: relative cell viability
Answer field: number only, no words.

Worked examples, 2 molecules total:
Oc1ncnc2[nH]ncc12 : 108
Cc1c(N(C)C)c(=O)n(-c2ccccc2)n1C : 111

**Query** Quick check: relative cell viability of CCc1ccc(CCOc2ccc(CC3SC(=O)NC3=O)cc2)nc1 (configuration not stated) [Pioglitazone hydrochloride] ?
**Result** 97.2

**Query** Another molecule: COc1ccccc1OCC(O)COC(N)=O (configuration not stated)
**Result** 107

**Query** Another molecule: Cc1cccc(C)c1NC(=O)C1CCCCN1C (configuration not stated) [Mepivacaine HCl]
**Result** 99.8

**Query** Another molecule: CCOc1cc(N)c(Cl)cc1C(=O)NCC1CN(Cc2ccc(F)cc2)CCO1 (configuration not stated) [Mosapride citrate]
**Result** 106

**Query** Another molecule: `COC(=O)[C@H](c1ccccc1Cl)N1CCc2sccc2C1`
**Result** 103

* * *

The following compounds are listed with their measured relative cell viability values.
Tested on: HL-1
ASSAY_SUMMARY: relative cell viability (CellTiter-Glo) vs DMSO control (% of DMSO control); higher = more viable cells
TEST_CONDITIONS: oxygen condition: hypoxia 48 h (1% O2) + reoxygenation 24 h; 40 nM
Counter-ions that a name gives are not always drawn.
Answer field: number only, no words.

CCC1(c2ccccc2)C(=O)NCNC1=O : 101
O=NO [Sodium nitrite] : 109
CC(=O)O[C@H]1CC[C@@]2(C)C(=CC[C@@H]3[C@@H]2CC[C@]2(C)C(c4cccnc4)=CC[C@@H]32)C1 [Abiraterone Acetate] : 104
CN(CCOc1ccc(NS(C)(=O)=O)cc1)CCc1ccc(NS(C)(=O)=O)cc1 [Dofetilide] : 102
C[C@]12CC[C@H](O)CC1=CC[C@@H]1[C@@H]2CC[C@]2(C)C(c3cccnc3)=CC[C@@H]12 : 74.6

**Query** Quick check: relative cell viability of CC(CCc1ccc(O)cc1)NCC(O)c1ccc(O)cc1 (stereo unspecified) [Ractopamine HCl] ?
**Result** 103

**Query** Another compound: O=C(O)Cc1ccccc1Nc1c(Cl)cccc1Cl [Diclofenac Diethylamine]
**Result** 103

**Query** Another compound: `O=C(NCCO[N+](=O)[O-])c1cccnc1`
**Result** 101

**Query** Another compound: `NC(N)=Nc1nc(CSCC/C(N)=N/S(N)(=O)=O)cs1`
**Result** 103
